# Tested on: Streptococcus mitis America
# ASSAY_NOTES: Antibacterial test (MIC), Streptococcus mitis America
# Format: cell-based
# CONDITION_LABEL: medium B-TSA
PROPERTY_MEASURED: Minimum inhibitory concentration (MIC)

CCN1CCN(C(=O)NC(C(=O)NC2CN(S(=O)(=O)[O-])C2=O)c2cccs2)C(=O)C1=O.[Na+] (racemic) [Compound E]: 25 µg/mL
O=C(NC1CN(S(=O)(=O)[O-])C1=O)C(NC(=O)N1CCN(N=Cc2ccco2)C1=O)c1cccs1.[Na+] (stereo not shown) [Compound L]: 6.25 µg/mL
CCN1CCN(C(=O)N[C@@H](C(=O)NC2CN(S(=O)(=O)[O-])C2=O)c2cccs2)C(=O)C1=O.[Na+] (stereo partly shown) [Compound F]: 25 µg/mL
CCCCCCCCN1CCN(C(=O)NC(C(=O)NC2CN(S(=O)(=O)[O-])C2=O)c2cccs2)C(=O)C1=O.[Na+] (stereo not shown) [Compound J]: 25 µg/mL
